MEASUREMENT NOTES: gradient 5% acetonitrile 3 min, to 50% in 2 min, to 85% in 15 min, held 3 min, 100 µL/min
CONDITIONS: column: Zorbax Extend-C18 2.1 x 50 mm; eluents: water / acetonitrile, 0.1% formic acid
Could you label it fulfilled if measured RP-LC retention time is 800 s or higher, and not fulfilled otherwise?

Example cases with answers are listed next.
INSERT INTO assay_data (chemical_structure, assigned_label) VALUES
  ('Cc1nc(-c2noc(-c3ccc(F)cc3)n2)cn1CC(=O)Nc1cccc(Cl)c1', 'fulfilled'),
  ('Cc1c(Cl)cccc1NC(=O)CCCn1cccc1', 'fulfilled'),
  ('Cc1cccc(-c2nc(N3CCCCCC3)c3ccccc3n2)c1', 'fulfilled'),
  ('COc1ccc(C(=O)Nc2ccc3c(c2)Sc2ncccc2C(=O)N3C)c(OC)c1', 'not fulfilled'),
  ('CC(=O)Nc1onc(C)c1-c1ccc(C)c(S(=O)(=O)N2CCN(c3ncccn3)CC2)c1', 'not fulfilled');

Determine whether measured RP-LC retention time meets or exceeds 800 s for CCN1CCN(C(=O)CSc2nccnc2Sc2ccccc2)CC1 not fulfilled

Determine whether measured RP-LC retention time meets or exceeds 800 s for Fc1ccc(OCc2cn(C3CN(Cc4cccc(F)c4)C3)nn2)cc1 not fulfilled

Determine whether measured RP-LC retention time meets or exceeds 800 s for O=C(CN1C(=O)CC(c2ccccc2)=Nc2ccccc21)NCc1ccccc1 fulfilled

Determine whether measured RP-LC retention time meets or exceeds 800 s for COc1ccc(NC2=NS(=O)(=O)C(c3ccc(F)cc3)=C2C)c(OC)c1 fulfilled

###

Item-by-item account of RP-LC retention time
MEASUREMENT NOTES: gradient 5% acetonitrile 3 min, to 50% in 2 min, to 85% in 15 min, held 3 min, 100 µL/min
CONDITIONS: column: Zorbax Extend-C18 2.1 x 50 mm; eluents: water / acetonitrile, 0.1% formic acid
Report the figure in s without appending any unit label.

Solved entries (count: 3):
INSERT INTO measurements (molecule, readout, scale_unit, reported) VALUES
  ('Cc1ccc(NS(=O)(=O)c2cc3c(s2)CCN(C(=O)C2CCC2)C3)cc1Cl', 'RP-LC retention time', 's', 1010),
  ('CCCCn1cc(S(=O)(=O)Nc2ccc(OC)cc2)c2cccnc21', 'RP-LC retention time', 's', 896),
  ('Cc1nnc2c(=O)n(CC(=O)NCc3ccc(F)cc3)c3cccnc3n12', 'RP-LC retention time', 's', 656);

Shifting focus to the molecule that follows.
Can you look up the measured RP-LC retention time of O=C(NC1CCCCC1NC(=O)c1cccs1)c1cccs1 (stereo not given) for me? 728

###

MEASUREMENT NOTES: gradient 5% acetonitrile 3 min, to 50% in 2 min, to 85% in 15 min, held 3 min, 100 µL/min
CONDITIONS: column: Zorbax Extend-C18 2.1 x 50 mm; eluents: water / acetonitrile, 0.1% formic acid
Could you label it t if measured RP-LC retention time is 700 s or higher, and f otherwise?

Determine whether measured RP-LC retention time meets or exceeds 700 s for Clc1ccc(CCCOCCCN2CCCCC2)cc1 t

Determine whether measured RP-LC retention time meets or exceeds 700 s for Cc1ccc(CNC(=O)c2ccc(-c3ccsc3)nc2)cc1 t

Determine whether measured RP-LC retention time meets or exceeds 700 s for CCOc1ccc(-c2[nH]ncc2CNS(=O)(=O)c2cccc(C(F)(F)F)c2)cc1 t

Determine whether measured RP-LC retention time meets or exceeds 700 s for Cc1ccccc1CNC(=O)C1c2ccccc2CC(=O)N1C(C)C (stereo not given) t

Determine whether measured RP-LC retention time meets or exceeds 700 s for CC(C)CCN(CC(=O)N1CCNCC1)C(=O)c1ccc(Br)cc1 f
